measurement protocol: chemical genetic growth profiling, strain panel (AID 1159580);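 note: tested at 20 µM; growth read once vehicle control cultures reached saturation at 30 °C; 1 = growth at the plate median or of vehicle wells; lower values mean less growth of the strain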
condition set: S. cerevisiae deletion strains, growth OD, locus YJL092W, strain hpr5, hits give low values
About 2,000 (36%) of roughly 5,500 compounds were called active. Roughly 18% stayed inconclusive and do not appear here. This is one part of the list.
I'd be grateful if you could share measured normalized growth for these entries.
Numbers only.

- compound: "CC(CCC(=O)O)[C@H]1CCC2C3CC[C@@H]4CCCC[C@]4(C)C3CC[C@@]21C (stereo partly specified)"
  recorded number: 1.01
- compound: "COc1ccc(C(=O)N2CCCC2=O)cc1"
  recorded number: 0.975
- compound: "O=c1cc(-c2ccccc2)oc2cc(O)c(O)c(O)c12"
  recorded number: 0.531
- compound: "CCCCC[C@H](CC(=O)NO)C(=O)N[C@H](C(=O)N1CCC[C@H]1CO)C(C)C"
  recorded number: 1.01
- compound: "COc1cc(C)c(C(=O)Oc2cc(C)c(C(=O)O)c(O)c2C)c(OC)c1C"
  recorded number: 0.983
- compound: "Cc1ncc([N+](=O)[O-])n1CC(C)O (stereo unspecified)"
  recorded number: 0.961
- compound: "COc1c2ccccc2nc2occc12"
  recorded number: 0.954
- compound: "O=c1cc(-c2ccccc2)oc2cccc(O)c12"
  recorded number: 0.975
- compound: "CNC(=O)Oc1ccc2c(c1)[C@]1(C)CCN(C)[C@@H]1N2C"
  recorded number: 1.01
- compound: "NS(=O)(=O)c1cc2c(cc1Cl)NC(C1CC3C=CC1C3)NS2(=O)=O (stereo unspecified)"
  recorded number: 0.99

Entry under review: COc1c2ccoc2nc2c(OC)c(OCC(O)C(C)(C)O)ccc12 (stereo unspecified) . Reported normalized growth?
1.01

* * *

I'd be grateful if you could share measured normalized growth for these entries.
measurement protocol: chemical genetic growth profiling, strain panel (AID 1159580);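 note: tested at 20 µM; growth read once vehicle control cultures reached saturation at 30 °C; 1 = growth at the plate median or of vehicle wells; lower values mean less growth of the strain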
condition set: S. cerevisiae deletion strains, growth OD, locus YIL066C, strain RNR3, hits give low values
The whole screen tested about 5,500 compounds, of which about 2,000 (36%) were called active. Roughly 18% stayed inconclusive and do not appear here. The list shows a part of the results.
Give bare numbers.

Worked cases, normalized growth given:
- molecule: "COc1cc(OC)c(OC)cc1C=O"
  assay metric: "normalized growth"
  recorded number: 1.04
- molecule: "CNCCCN1c2ccccc2CCc2ccccc21"
  assay metric: "normalized growth"
  recorded number: 1.01
- molecule: "Cc1cc(C)cc(OCC2CNC(=O)O2)c1 (stereo unspecified)"
  assay metric: "normalized growth"
  recorded number: 1.02
- molecule: "S=P(N1CC1)(N1CC1)N1CC1"
  assay metric: "normalized growth"
  recorded number: 1.02
- molecule: "O=c1cc(-c2ccccc2)oc2cc(O)cc(O)c12"
  assay metric: "normalized growth"
  recorded number: 0.959
- molecule: "O=c1cc(-c2ccccc2)oc2c(O)c(O)ccc12"
  assay metric: "normalized growth"
  recorded number: 0.873
- molecule: "Cc1cc(=O)oc2c(O)c(O)ccc12"
  assay metric: "normalized growth"
  recorded number: 1.02
- molecule: "Cc1cccc(Nc2ccncc2S(=O)(=O)NC(=O)NC(C)C)c1"
  assay metric: "normalized growth"
  recorded number: 1.04

For every item below, please supply its normalized growth.
1. COc1c2ccccc2nc2occc12
2. CC(CN(C)C)CN1c2ccccc2Sc2ccccc21 (stereo unspecified)
3. CN[C@@H]1[C@H](OC2[C@H](O[C@H]3[C@H](O)[C@@H](O)[C@H](N=C(N)N)[C@@H](O)[C@@H]3N=C(N)N)O[C@@H](C)[C@]2(O)C=O)O[C@@H](CO)[C@H](O)[C@H]1O (stereo partly specified)

1: 0.91; 2: 0.972; 3: 1.02
